- experimental_target: T1, Human Serum Albumin (human, UniProt P02768 25-609)
- T1 construct: mature; Bought purified serum protein; Immobilised on CM5 chips; also called HSA; human SA
- T1 sequence (P02768 25-609): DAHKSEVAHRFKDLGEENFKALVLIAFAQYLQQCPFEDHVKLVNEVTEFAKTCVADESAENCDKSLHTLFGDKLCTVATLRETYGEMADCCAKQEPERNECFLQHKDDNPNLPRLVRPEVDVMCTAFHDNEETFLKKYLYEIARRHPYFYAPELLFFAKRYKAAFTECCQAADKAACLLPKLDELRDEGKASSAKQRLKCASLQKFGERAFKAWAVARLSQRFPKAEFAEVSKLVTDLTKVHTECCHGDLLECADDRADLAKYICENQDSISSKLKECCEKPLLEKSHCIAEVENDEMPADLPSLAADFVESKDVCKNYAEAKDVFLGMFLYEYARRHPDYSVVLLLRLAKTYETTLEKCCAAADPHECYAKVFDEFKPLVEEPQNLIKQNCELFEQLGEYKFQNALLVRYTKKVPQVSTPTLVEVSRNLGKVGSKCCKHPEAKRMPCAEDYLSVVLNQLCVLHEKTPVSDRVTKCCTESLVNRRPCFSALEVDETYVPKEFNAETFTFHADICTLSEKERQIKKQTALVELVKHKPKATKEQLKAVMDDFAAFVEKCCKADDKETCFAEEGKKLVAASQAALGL
- measurement_protocol: SPR (BIAcore), purified dAb
- Description: Unique dAbs were expressed as bacterial supernatants in 0.5 L shake flasks in Onex media at 30° C. for 48 hrs at 250 rpm. dAbs were purified from the culture media by absorption to protein L streamline followed by elution with 100 mM glycine pH2.0.
Kd values by entry
Give the quantity in nM, number only.

Look over these answered cases.
binder	parameter	test_result
DOM7h-14-123 (other) VL: DIQMTQSPSSLSASVGDRVTITCRASQWIGSQLSWYQQKPGKAPKLLIMWRSSLQSGVPSRFSGSGSGTDFTLTISSLQPEDFATYYCAQGLRHPKTYGKGTKVENKR	Kd	12
DOM7h-14-101 (other, pDOM5 myc tag not included) VL: DIQMTQSPSSLSASVGDRVTITCRASQWIGSQLSWYQQKPGKAPKLLIMWRSALQNGVPSRFSGSGSGTDFTLTISSLQPEDFATYYCAQGLRHPKTFGQGTKVEIKW	Kd	8.4
DOM7h-14-100 (other, pDOM5 myc tag not included) VL: DIQMTQSPSSLSASVGDRVTITCRASQWIGSQLSWYQQKPGKAPKLLIMWRSSLQSGVPSRFSGSGSGTDFTLTISSLQPEDFATYYCAQGLRHPKTYGQGTKVENKW	Kd	4.5
DOM7h-14-76 (other, pDOM5 myc tag not included) VL: DIQMTQSPSSLSASVGDRVTITCRASQWIGSQLSWYQQKPGKAPKLLIMWRSSLQSGVPSRFSGSGSGTDFTLTISSLQPEDFATYYCAQGLKHPKTYGQGTKVEIKW	Kd	6.3

Next item in the queue.
Q) # return recorded Kd for entry DOM7h-14-120 (other) VL: DIQMTQSPSSLSASVGDRVTITCRASQWIGSQLSWYQQKPGKAPKLLIMWRSSLQSGVPSRFSGSGSGTDFTLTISSLQPEDFATYYCAQGLRHPKTYGQGTKVENKR
A) 14
